B1: 2M8U (parent)
chain: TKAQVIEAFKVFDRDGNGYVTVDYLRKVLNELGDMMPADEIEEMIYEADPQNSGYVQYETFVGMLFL

variants of: B1; assay: folding stability dG (cDNA display proteolysis); higher = more stable; settings: PBS, room temperature
I'd be grateful if you could share measured folding stability dG for these entries.
Answer with the figure and its unit, nothing else.

> print(dat)
   variant.descriptor  recorded.result
1                I41K    2.59 kcal/mol
2                G63H    3.72 kcal/mol
3                G16E    2.93 kcal/mol
4                P37K     3.7 kcal/mol
5                A38L    3.59 kcal/mol

Hi! Can you tell me folding stability dG for each of these variants?
1. F9Y
2. Y19S
3. T21P
4. V11L
5. Y46V
6. K2E
7. V56E
8. S53G

2.1 kcal/mol
2.9 kcal/mol
3.46 kcal/mol
3.44 kcal/mol
3.5 kcal/mol
3.07 kcal/mol
2.33 kcal/mol
2.94 kcal/mol

// for each variant in input: emit folding stability dG
1. N52P
2. E59N
3. L29K
4. D15Q
5. F66S
6. K10Y
7. V28F
8. M64N

1: 2.43 kcal/mol; 2: 2.91 kcal/mol; 3: 1.33 kcal/mol; 4: 3.02 kcal/mol; 5: 2.72 kcal/mol; 6: 2.79 kcal/mol; 7: 2.86 kcal/mol; 8: 3.83 kcal/mol

Dear colleague, could you please provide folding stability dG for the variants listed below?
1. V62Q
2. M36W
3. M64L
4. T1V
5. Y46I

1.94 kcal/mol
4.42 kcal/mol
3.74 kcal/mol
3.32 kcal/mol
3.47 kcal/mol

For every record below, what is its folding stability dG?
1. A38F
2. Q51A
3. L65F
4. E43N
5. V11R
6. Q57N
7. P37T

["3.53 kcal/mol", "3.47 kcal/mol", "3.28 kcal/mol", "3.64 kcal/mol", "3.63 kcal/mol", "3.61 kcal/mol", "3.32 kcal/mol"]

Sourced from the MegaScale stability set (Tsuboyama et al. 2023)
